Reported melting point values follow for various molecules

Past entries and their recorded results:
Q. Fill in: melting point of C[C@@H](Oc1cc(-c2cnn(C3CCNCC3)c2)cnc1N)c1ccccc1 [WWQ-1093-25] is ___
A. 194.2 to 195 °C

Q. Given C[C@@H](Nc1cc(-c2cnn(C3CCNCC3)c2)cnc1N)c1c(Cl)ccc(F)c1Cl [WWQ-1093-73] , state its recorded melting point.
A. 191.5 to 191.7 °C

Q. Entry C[C@@H](Oc1cc(-c2cnn(C3CCOCC3)c2)cnc1N)c1c(Cl)ccc(F)c1Cl [WWQ-1093-27] : reported melting point = ?
A. 188.1 to 190.4 °C

Q. State the recorded melting point for this entry: CC(Oc1cc(-c2ccccc2)cnc1N)c1cc(F)ccc1Cl (stereo not drawn) [WWQ-1093-75]
A. 199 to 199.8 °C

Q. Entry CC(Oc1cc(-c2cccc(N3CCNCC3)c2)cnc1N)c1cc(F)ccc1Cl (stereo not drawn) [WWQ-1093-89] : reported melting point = ?
A. 190.8 to 191.6 °C

Next:
Q. State the recorded melting point for this entry: CC(Oc1cc(-c2ccc(C3CCNCC3)cc2)cnc1N)c1cc(F)ccc1Cl (stereo not drawn) [WWQ-1093-87]
A. 189.8 to 191 °C

Q. Value lookup for melting point; key = CC(Oc1cc(-c2ccc(N3CCNCC3)cc2)cnc1N)c1cc(F)ccc1Cl (stereo not drawn) [WWQ-1093-85]
A. 191.1 to 193.7 °C

Q. Record request: melting point value, item COc1ccc(F)c(Cl)c1C(C)Oc1cc(-c2cnn(C3CCNCC3)c2)cnc1N (stereo not drawn) [WWQ-175]
A. 189.8 to 191.3 °C

Q. Entry COc1ccc(F)cc1C(C)Oc1cc(-c2cnn(C3CCNCC3)c2)cnc1N (stereo not drawn) [WWQ-1093-71] : reported melting point = ?
A. 191.6 to 192.3 °C
